- test_target: Cytochrome P450 1A2 (Homo sapiens) (UniProt P05177)
- Sequence (P05177 whole entry, looked up): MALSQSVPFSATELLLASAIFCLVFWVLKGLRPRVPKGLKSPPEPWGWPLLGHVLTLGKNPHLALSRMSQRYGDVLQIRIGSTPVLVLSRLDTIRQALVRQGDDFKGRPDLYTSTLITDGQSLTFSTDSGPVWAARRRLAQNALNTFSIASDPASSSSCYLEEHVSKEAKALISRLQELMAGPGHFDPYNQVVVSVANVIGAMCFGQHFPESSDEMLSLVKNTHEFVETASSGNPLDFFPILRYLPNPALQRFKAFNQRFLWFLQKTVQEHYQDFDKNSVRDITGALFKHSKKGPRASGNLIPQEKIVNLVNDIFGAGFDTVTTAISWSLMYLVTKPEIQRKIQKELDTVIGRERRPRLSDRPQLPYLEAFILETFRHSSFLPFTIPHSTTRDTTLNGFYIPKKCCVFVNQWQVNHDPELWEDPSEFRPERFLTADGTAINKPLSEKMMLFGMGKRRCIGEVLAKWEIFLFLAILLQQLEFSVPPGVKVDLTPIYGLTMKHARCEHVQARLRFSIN
- assay_summary: Cytochrome panel assay with activity outcomes
- test_parameters: recombinant CYP, pro-luciferin dealkylation, luminescence, p450-cyp1a2; series mostly up to 57.1 µM
The whole screen tested about 16,000 compounds, of which about 5,700 (36%) were called active. Another 24% or so got no clear call; they are omitted. Calls come from the whole dose curve; as a rule, active = well fitted curve in the direction sought with a large enough effect; inconclusive = small, poorly fitted or top-dose-only effect, or effect the other way; inactive = no such curve, though single readings can be large or run the other way. Some of the results follow.
In this exercise, the only acceptable responses are active, inactive

- CNc1ccnc(-c2ccccc2CN(C)C)n1: active
- O=C(c1ccc2c(=O)n(CC3CCCO3)c(=S)[nH]c2c1)N1CCN(c2ccccc2)CC1 (stereo not drawn): inactive
- COc1cccc(-c2cc(NCc3ccccc3)ncn2)c1: active
- CN(C)Cc1ccccc1-c1nccc(NC2CC2)n1: active
- N#Cc1cccc(-c2nccc(NCc3ccccc3)n2)c1: active
- c1cncc(-c2cc(NCc3cccs3)ncn2)c1: active

Outcome? `CC(C)(C)C(=O)Nc1cccc(-c2nc3ccccc3c(=O)o2)c1` active

For this compound, state the assay outcome: CC[C@@H](C)[C@H]1O[C@]2(CC[C@@H]1C)C[C@@H]1C[C@H](C/C=C(/C)[C@H](O[C@@H]3C[C@H](OC)[C@H](O[C@@H]4C[C@H](OC)[C@@H](O)[C@H](C)O4)[C@H](C)O3)[C@@H](C)/C=C\C=C3CO[C@@H]4[C@H](O)C(C)=C[C@@H](C(=O)O1)[C@]34O)O2 (tested in a mixture with another compound) inactive

What did the test return for CC(C)COP(=O)(c1ccc(N(C)C)cc1)C(O)c1ccccc1F (stereo not drawn) ? inactive

* * *

- test_target: Cytochrome P450 1A2 (Homo sapiens) (UniProt P05177)
- assay_summary: Cytochrome panel assay with activity outcomes
- test_parameters: recombinant CYP, pro-luciferin dealkylation, luminescence, p450-cyp1a2; series mostly up to 57.1 µM
Screen size: about 16,000 compounds; about 5,700 (36%) were called active. About 24% were inconclusive and are not listed. Some of the results follow.
measure: AC50

Completed entries (count: 10):
* CCNc1nc(Sc2ccc(C)cc2)cc(C(F)(F)F)n1 | 3.16 µM (active)
* CCOc1ccc(/C(O)=C2\C(=O)C(=O)N(CCOCCO)C2c2ccccc2OC)cc1 (stereo not given) | inactive
* CN(C)C(=O)c1ccc(-c2nccc(Nc3ccc(F)cc3)n2)cc1 | 6.31 µM (active)
* CCOC(=O)Cc1c(C)nc2c(C#N)c[nH]n2c1=O | inactive
* NCCNS(=O)(=O)c1cccc2cnccc12 | inactive
* CN(c1ccccc1)c1ccc(/C=c2\s/c(=C(/C#N)C(=O)C(C)(C)C)n(Cc3ccco3)c2=O)cc1 | inactive
* COc1ccccc1N1CCN(CCCCNS(=O)(=O)c2cccc3c(N(C)C)cccc23)CC1 | inactive
* CCCSc1nc(SCC(=O)NCc2ccccc2)c2c3c(sc2n1)COC(C)(CC)C3 (stereo not given) | inactive
* COc1ccc(-n2c(=S)[nH]c3cc(C(=O)NCCCN4CCCC4=O)ccc3c2=O)cc1 | 25.1 µM (active)
* O=C(Cn1c(=O)n(Cc2ccco2)c(=O)c2c3c(sc21)CCCCC3)c1ccccc1 | 12.6 µM (active)

Would you kindly share the measured AC50 for `CCc1c(C)c(C#N)c2nc3ccccc3n2c1Nc1c(C)n(C)n(-c2ccccc2)c1=O` ? inactive

Item `CC[C@H](C)C(=O)O[C@@H]1C[C@H](C)C=C2C=C[C@H](C)[C@@H](CC[C@H]3C[C@@H](O)CC(=O)O3)[C@H]21` has what recorded AC50? inactive
